# System: UACC-62
# experiment description: NCI-60 screen (SRB), melanoma
# particulars: Homo sapiens, UACC-62
Recorded IC50 values for a group of compounds are listed next.
quantity name: IC50

COc1cc(OC)c(S(=O)(=O)N(CCCl)CCCl)cc1C(=O)/C=C/c1cc(OC)c(OC)c(OC)c1 [Compound 18e] : 4.94 µM
COc1cc(OC)c(S(N)(=O)=O)cc1C(=O)/C=C/c1ccc(C)cc1 [Compound 17c] : 3.63 µM
COc1cc(OC)c(S(N)(=O)=O)cc1C(=O)/C=C/c1ccc(Cl)cc1 [Compound 17b] : 2.67 µM
COc1cc(OC)c(S(N)(=O)=O)cc1C(=O)C=Cc1ccccc1 [Compound 17a] : 12.2 µM

====

# Test system: MDA-MB-468
# experiment description: NCI-60 screen (SRB), breast cancer
# particulars: Homo sapiens, MDA-MB-468, read-out: LC50
quantity name: CC50 (µM)

COc1cc(OC)c(S(=O)(=O)N(CCCl)CCCl)cc1C(=O)/C=C/c1cc(OC)c(OC)c(OC)c1 [Compound 18e] : 8.84
COc1cc(OC)c(S(N)(=O)=O)cc1C(=O)/C=C/c1ccc(Cl)cc1 [Compound 17b] : 6.54
COc1cc(OC)c(S(N)(=O)=O)cc1C(=O)C=Cc1ccccc1 [Compound 17a] : 43.9
COc1cc(OC)c(S(N)(=O)=O)cc1C(=O)/C=C/c1ccc(C)cc1 [Compound 17c] : 54.3

====

# CC50 annotations
# System: HOP-62
# experiment description: NCI-60 screen (SRB), non-small cell lung cancer
# particulars: Homo sapiens, HOP-62, read-out: LC50
quantity name: CC50 (µM)

COc1cc(OC)c(S(N)(=O)=O)cc1C(=O)/C=C/c1ccc(C)cc1 [Compound 17c] : 29.5
COc1cc(OC)c(S(N)(=O)=O)cc1C(=O)C=Cc1ccccc1 [Compound 17a] : 51.9
COc1cc(OC)c(S(N)(=O)=O)cc1C(=O)/C=C/c1ccc(Cl)cc1 [Compound 17b] : 25.9

====

# System: MDA-MB-231/ATCC
# experiment description: NCI-60 screen (SRB), breast cancer
# particulars: Homo sapiens, MDA-MB-231
quantity name: IC50 (µM)

COc1cc(OC)c(S(N)(=O)=O)cc1C(=O)/C=C/c1ccc(Cl)cc1 [Compound 17b] : 18.9
COc1cc(OC)c(S(N)(=O)=O)cc1C(=O)C=Cc1ccccc1 [Compound 17a] : 11.9
COc1cc(OC)c(S(N)(=O)=O)cc1C(=O)/C=C/c1ccc(C)cc1 [Compound 17c] : 3.41

====

# Tested on: HCC-2998
# experiment description: NCI-60 screen (SRB), colon cancer
# particulars: Homo sapiens, HCC 2998, read-out: LC50
// CC50 lookup, one value per entry
quantity name: CC50

COc1cc(OC)c(S(N)(=O)=O)cc1C(=O)/C=C/c1ccc(Cl)cc1 [Compound 17b] : 22.3 µM
COc1cc(OC)c(S(=O)(=O)N(CCCl)CCCl)cc1C(=O)/C=C/c1cc(OC)c(OC)c(OC)c1 [Compound 18e] : 6.35 µM
COc1cc(OC)c(S(N)(=O)=O)cc1C(=O)C=Cc1ccccc1 [Compound 17a] : 54.7 µM
COc1cc(OC)c(S(N)(=O)=O)cc1C(=O)/C=C/c1ccc(C)cc1 [Compound 17c] : 22.3 µM
